System: A2780 cells
measurement_protocol: In-Vitro Cell Proliferation Assay (SRB)
Type: cell-based
particulars: Homo sapiens, A2780, 72 h
Lab note - cut at 6 nM for IC50: yes (1) if strictly below, no (0) if not.

These solved cases illustrate the format of a correct answer.
- smiles_code: "N#CN=C(NCc1ccc(S(=O)(=O)c2ccc3ncccc3c2)cc1)Nc1ccncc1"
  answer_label: "no (0)"
- smiles_code: "CS(=O)(=O)c1ccc(S(=O)(=O)c2ccc(CNC(=NC#N)Nc3ccncc3)cc2)cc1"
  answer_label: "no (0)"
- smiles_code: "Cc1cccc(S(=O)(=O)c2ccc(CNC(=NC#N)Nc3ccncc3)cc2)c1"
  answer_label: "yes (1)"
- smiles_code: "N#C/N=C(\\NCc1ccc(S(=O)(=O)c2ccccc2)cc1)NCc1ccn2ccnc2c1"
  answer_label: "no (0)"
- smiles_code: "COc1ccc(S(=O)(=O)c2ccc(CNC(=NC#N)Nc3ccncc3)cc2)cc1Cl"
  answer_label: "yes (1)"
- smiles_code: "CCNC(=O)c1cccc(S(=O)(=O)c2ccc(CNC(=NC#N)Nc3ccncc3)cc2)c1"
  answer_label: "no (0)"
- smiles_code: "CC(C)Oc1ccc(S(=O)(=O)c2ccc(CNC(=NC#N)Nc3ccncc3)cc2)cc1"
  answer_label: "yes (1)"
- smiles_code: "Cn1cc(S(=O)(=O)c2ccc(CNC(=NC#N)Nc3ccncc3)cc2)cn1"
  answer_label: "no (0)"

Could you now consider this next molecule?
Ask: I wonder whether CCOc1ccccc1S(=O)(=O)c1ccc(CNC(=NC#N)Nc2ccncc2)cc1 has IC50 below 6 nM. Can you tell?
Result: yes (1)

* * *

Some compounds, each annotated with its measured log10(IC50).
System: A2780 cells
measurement_protocol: In-Vitro Cell Proliferation Assay (SRB)
Type: cell-based
particulars: Homo sapiens, A2780, 72 h
Scale type: logarithmic (base 10). Underlying IC50 unit: nM.

Worked cases, log10(IC50) given:
- smiles_code: "Cc1ccccc1S(=O)(=O)c1ccc(CNC(=NC#N)Nc2ccncc2)cc1"
  metric_name: "log10(IC50)"
  test_value: 0.75
- smiles_code: "N#CN=C(NCc1ccc(S(=O)(=O)c2cc(F)cc(Cl)c2)cc1)Nc1ccncc1"
  metric_name: "log10(IC50)"
  test_value: 0.84
- smiles_code: "N#C/N=C(\\NCCc1ccc(S(=O)(=O)c2ccccc2)cc1)Nc1ccncc1"
  metric_name: "log10(IC50)"
  test_value: 0.72

get_value(item= COc1ccc(S(=O)(=O)c2ccc(CN/C(=N\C#N)Nc3ccncc3)cc2)cc1 , readout=log10(IC50)) returns 1.00

get_value(item= Cc1ccc(S(=O)(=O)c2ccc(CNC(=NC#N)Nc3ccncc3)cc2)cc1C , readout=log10(IC50)) returns 0.08

get_value(item= COc1cc(Cl)ccc1S(=O)(=O)c1ccc(CNC(=NC#N)Nc2ccncc2)cc1 , readout=log10(IC50)) returns 0.28

get_value(item= COc1ccc(Cl)cc1S(=O)(=O)c1ccc(CNC(=NC#N)Nc2ccncc2)cc1 , readout=log10(IC50)) returns 0.81

* * *

Some compounds, each annotated with its measured log10 of IC50.
Test system: A2780 cells
measurement_protocol: In-Vitro Cell Proliferation Assay (SRB)
Type: cell-based
particulars: Homo sapiens, A2780, 72 h
Scale type: logarithmic (base 10). Underlying IC50 unit: nM.

Worked cases, log10 of IC50 given:
- smiles_code: "CC(C)NC(=O)c1cccc(S(=O)(=O)c2ccc(CNC(=NC#N)Nc3ccncc3)cc2)c1"
  metric_name: "log10 of IC50"
  test_value: 1.23
- smiles_code: "N#CN=C(NCc1ccc(S(=O)(=O)c2cncc(F)c2)cc1)Nc1ccncc1"
  metric_name: "log10 of IC50"
  test_value: 1.08
- smiles_code: "N#CN=C(NCc1ccc(S(=O)(=O)c2cccc(C(=O)NC3CC3)c2)cc1)Nc1ccncc1"
  metric_name: "log10 of IC50"
  test_value: 1.30
- smiles_code: "Cc1cc(Cl)cc(S(=O)(=O)c2ccc(CNC(=NC#N)Nc3ccncc3)cc2)c1"
  metric_name: "log10 of IC50"
  test_value: 0.20

Please turn your attention to the following entry.
get_value(item= CC(C)Oc1cccc(S(=O)(=O)c2ccc(CNC(=NC#N)Nc3ccncc3)cc2)c1 , readout=log10 of IC50) returns 0.76

* * *

Some molecules, each annotated with its measured IC50.
Test system: A2780 cells
measurement_protocol: In-Vitro Cell Proliferation Assay (SRB)
Assay type: cell-based
particulars: Homo sapiens, A2780, 72 h
Give a bare numeral; the unit nM is implied.

Worked cases, IC50 given:
- smiles_code: "CC(=O)c1ccc(S(=O)(=O)c2ccc(CNC(=NC#N)Nc3ccncc3)cc2)cc1"
  scale_unit: "nM"
  IC50: 7.3
- smiles_code: "N#CN=C(NCc1ccc(S(=O)(=O)c2ccc(Cl)c(Cl)c2)cc1)Nc1ccncc1"
  scale_unit: "nM"
  IC50: 1

get_value(item= N#CN=C(NCc1ccc(S(=O)(=O)c2ccc(C(=O)N3CCCC3)cc2)cc1)Nc1ccncc1 , readout=IC50) returns 13.4

get_value(item= N#C/N=C(\NCc1ccc(S(=O)(=O)c2cccnc2)cc1)Nc1ccncc1 , readout=IC50) returns 66.9

get_value(item= N#CN=C(NCc1ccc(S(=O)(=O)c2ccc(F)c(F)c2)cc1)Nc1ccncc1 , readout=IC50) returns 2.5

* * *

Test system: A2780 cells
measurement_protocol: In-Vitro Cell Proliferation Assay (SRB)
Assay type: cell-based
particulars: Homo sapiens, A2780, 72 h
metric_name: pIC50
Just so you know, pIC50 here is -log10 of the concentration in molar units; reply with that number alone.

Worked cases, pIC50 given:
- smiles_code: "CCN(CC)C(=O)c1ccc(F)c(S(=O)(=O)c2ccc(CNC(=NC#N)Nc3ccncc3)cc2)c1"
  tested_on: "A2780 cells"
  pIC50: 7.27
- smiles_code: "COCc1cccc(S(=O)(=O)c2ccc(CNC(=NC#N)Nc3ccncc3)cc2)c1"
  tested_on: "A2780 cells"
  pIC50: 8.23
- smiles_code: "N#CN=C(NCc1ccc(S(=O)(=O)c2ccc3c(c2)OCO3)cc1)Nc1ccncc1"
  tested_on: "A2780 cells"
  pIC50: 8.48
- smiles_code: "CC(C)c1ccc(S(=O)(=O)c2ccc(CNC(=NC#N)Nc3ccncc3)cc2)cc1"
  tested_on: "A2780 cells"
  pIC50: 8.55
- smiles_code: "N#CN=C(NCc1ccc(S(=O)(=O)c2cccc(C(=O)N3CCOCC3)c2)cc1)Nc1ccncc1"
  tested_on: "A2780 cells"
  pIC50: 7.15

get_value(item= N#CN=C(NCc1ccc(S(=O)(=O)c2ccc(C(F)(F)F)cc2)cc1)Nc1ccncc1 , readout=pIC50) returns 8.12

get_value(item= COc1ccc(S(=O)(=O)c2ccc(CNC(=NC#N)Nc3ccncc3)cc2)c(OC)n1 , readout=pIC50) returns 8.47

get_value(item= Cc1cccc(S(=O)(=O)c2ccc(CNC(=NC#N)Nc3ccncc3)cc2)c1C , readout=pIC50) returns 8.46

get_value(item= CNC(=O)c1ccc(S(=O)(=O)c2ccc(CNC(=NC#N)Nc3ccncc3)cc2)cn1 , readout=pIC50) returns 7.56

* * *

tested_on: NAMPT (Homo sapiens (Human), UniProt P43490)
Sequence (P43490 whole entry): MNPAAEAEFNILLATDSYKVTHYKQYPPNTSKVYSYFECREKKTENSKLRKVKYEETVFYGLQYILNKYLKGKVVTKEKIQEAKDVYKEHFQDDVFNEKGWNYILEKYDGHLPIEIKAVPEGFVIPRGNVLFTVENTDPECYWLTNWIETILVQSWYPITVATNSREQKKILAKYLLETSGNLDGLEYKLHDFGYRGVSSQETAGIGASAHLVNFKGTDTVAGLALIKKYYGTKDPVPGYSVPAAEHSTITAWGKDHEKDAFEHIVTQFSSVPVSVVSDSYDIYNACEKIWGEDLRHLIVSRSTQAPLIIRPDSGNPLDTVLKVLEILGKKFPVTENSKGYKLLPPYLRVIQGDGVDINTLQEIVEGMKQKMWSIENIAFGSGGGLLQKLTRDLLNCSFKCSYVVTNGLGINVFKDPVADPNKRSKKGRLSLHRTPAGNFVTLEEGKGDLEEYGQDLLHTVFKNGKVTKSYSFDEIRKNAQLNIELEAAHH
measurement_protocol: Biochemical Inhibition Assay (NAMPT enzymatic reaction, NMN by mass spectrometry)
particulars: recombinant His-tagged NAMPT 33 nM, 1 μM NAM, 30 minutes; read-out: Biochem IC50
Protocol: Biochemical Inhibition Assay NAMPT Protein Purification Recombinant His-tagged NAMPT was produced in E. coli cells, purified over a Ni column, and further purified over a size-exclusion column by XTAL Biostructures. […] Background and signal strength was determined by addition (or non-addition) of a serial dilution of NMN to a pre-quenched enzyme and cofactor mix. […] NMN and L-Cystathionine were detected using the services of Biocius Lifesciences with the RapidFire system. […]
Some compounds, each annotated with its measured IC50.
Give a bare numeral; the unit nM is implied.

- smiles_code: "COc1ccc(C(C)C)cc1S(=O)(=O)c1ccc(CNC(=NC#N)Nc2ccncc2)cc1"
  IC50, nM: 5.3
- smiles_code: "N#CN=C(NCc1ccc(S(=O)(=O)c2ccc(Cl)c(F)c2)cc1)Nc1ccncc1"
  IC50, nM: 2
- smiles_code: "Cn1c(S(=O)(=O)c2ccc(CNC(=NC#N)Nc3ccncc3)cc2)cc2ccccc21"
  IC50, nM: 2.1
- smiles_code: "Cc1ccc(S(=O)(=O)c2ccc(CNC(=NC#N)Nc3ccncc3)cc2)cc1Cl"
  IC50, nM: 1.9
- smiles_code: "CN(C)C(=O)c1cc(F)cc(S(=O)(=O)c2ccc(CNC(=NC#N)Nc3ccncc3)cc2)c1"
  IC50, nM: 4.6

Please turn your attention to the following entry.
get_value(item= N#CN=C(NCc1ccc(S(=O)(=O)c2ccc(Cl)c(C(F)(F)F)c2)cc1)Nc1ccncc1 , readout=IC50) returns 1

* * *

tested_on: NAMPT (Homo sapiens (Human), UniProt P43490)
measurement_protocol: Biochemical Inhibition Assay (NAMPT enzymatic reaction, NMN by mass spectrometry)
particulars: recombinant His-tagged NAMPT 33 nM, 1 μM NAM, 30 minutes; read-out: Biochem IC50
Some compounds, each annotated with its measured pIC50.
Just so you know, pIC50 here is -log10 of the concentration in molar units; reply with that number alone.

- smiles_code: "N#CN=C(NCc1ccc(S(=O)(=O)c2ccc3ncccc3c2)cc1)Nc1ccncc1"
  pIC50: 8.21

get_value(item= CC(C)c1cccc(S(=O)(=O)c2ccc(CNC(=NC#N)Nc3ccncc3)cc2)c1 , readout=pIC50) returns 8.54

get_value(item= N#CN=C(NCc1ccc(S(=O)(=O)c2ccc(F)c(F)c2)cc1)Nc1ccncc1 , readout=pIC50) returns 9.10

get_value(item= N#CN=C(NCc1ccc(S(=O)(=O)c2ccc(C#N)cc2)cc1)Nc1ccncc1 , readout=pIC50) returns 8.23

get_value(item= Cc1cccc(S(=O)(=O)c2ccc(CNC(=NC#N)Nc3ccncc3)cc2)c1C , readout=pIC50) returns 8.40

get_value(item= COc1cc(S(=O)(=O)c2ccc(CNC(=NC#N)Nc3ccncc3)cc2)ccc1C , readout=pIC50) returns 8.92
